Test: yeast display, Sf9 membrane polyspecificity reagent, FACS + sequencing; frameworks hold sequencing errors
Measurement Name: polyreactivity (PSR sort gate)

Example entries begin here.
| Input Sequence | polyreactivity (PSR sort gate) |
| --- | --- |
| QVQLVESGGGLVQAGGSLRLSCAASGFTLGGNALGWYRQAPGKERELVAAITFSGGSTYYADSVKGRFTISRDNAKNIVYLQMNSLKPVDTAVYYCAKTHGYYYYYTYDYWGQGTQVTVSS | low polyreactivity |
| QVQLVESGGGLVQAGGSLRLSCAASGRTFIVYAMGWYRQAPGTERELVAGITRGSTTYADSVKGRFTISRDNATNTVYLQMNSLKPEDTAVYYCAARSSRRGPISEGDYWGQGTHVTVSS | high polyreactivity |
| QVQLVESGGGLVQAGGSLRLSCAASGITIVNYVMGWYRQAPGKERELVAAISIGGGTYYADSVKGRFTISRDNAKNTVYLQMNSLKPEDTAVYYCNASYGGLSFYIGVYVTGYYYWGQGTQVTVSS | low polyreactivity |
| QVQLVESGGGLVQAGGSLRLSCAASGSIFKVYAMGWYRQAPGKERELVAAITGSGGSTYYADSVKGRFTISRDNAKNTVYLQMNSLKPEDTAVYYCNTDYYYSGYFRRFDYWGQGTQVTVSS | high polyreactivity |

Kindly review the next sequence as well.
For QVQLVESGGCLVQAGGSLRLSCAASGNTFRRNVMGWYRQAPGKERELVPAINRGGSTTYADSVKGRFTISRDNAMNTVYLQMNSLKPEDTAVYYCNAEKRGQSYRFDYWGQGSQVTVSS , what is its reported polyreactivity (PSR sort gate)?
high polyreactivity

---

Experiment: yeast display, Sf9 membrane polyspecificity reagent, FACS + sequencing; frameworks hold sequencing errors
Measurement Name: polyreactivity (PSR sort gate)

Example entries begin here.
| Input Sequence | polyreactivity (PSR sort gate) |
| --- | --- |
| QVQLVESGGGLVQAGGSLRLSCAASGFIFAPNAMGWYRQAPGKERELVAAISHSGASTFYADSVKGRFTISRDNAKNTVYLQMNILKPEDTAVYYCAADLYIYYVWIRDYWGHGTQVTVSS | low polyreactivity |
| QVQLVESGGGLVQAGGSLRLSCAASGFISTYYAMGWYRQAPGKERELVAAISWNGGSTYYADSVKGRFTISRDNAKNTVYLQMNSLKPEDTAVYYCAAYLGKWRHFYSSDYDYWGQGTQVTVSS | low polyreactivity |
| QVQLVESGGGLVQAGGSLRLSCAASGYIFVYNSMGWYRPAPGKERELVAVINYSGSSTYYADSVKGRFPISRDNAKNTVYLQMNSLKPEDTAVYYCNALRRESLEDEYWGQGTQVTVSS | high polyreactivity |
| QVQLVESGGGLVQAGGSLRLSCAASGRIFANYARGWYRQAPGKERELVAAITASGGSTYYADSVKGRFTISRVNAKNTVYLQMNSLKPEDTAGYYCAKGYRLYTMYSWGQGTQVTVSS | high polyreactivity |
| QVQLVESGGGLVQAGGSLRLSCAASGSIFARYTMGGYRPAPGKASELVAAISTSGSRTYYADSVKGRFTISRDNAKKTVYLQRYSLKPEDTAVYFCAARNGGRYAPGLDYWGQGTQVTVSS | high polyreactivity |
| QVQLVESGGGLVQAGGSLRLSCVASGSIFKQYAMGWYRQAPGKERELVAGISKTGGRTYYADSVKGRFTISRDNAKNTVYLQMNSLKPEDTAVYYCAAYFRSDYGYWGQGTQVTVSS | high polyreactivity |
| QVQLVESGGGLVQAGGSLRLSCAASGFTFTRYAKGWYRQAPGKERELVAAISQNGGSTYYADSVKGRFTISRDNAKNTVYLQMNSLKPEDTAVYYCYAGVRRTIAFDYWGQGTQVTVSS | high polyreactivity |
| QVQHVESGGGLVQAGGSLRLSCAASGLTFTYYVKGCYRQAPGKERELVAAITVSGGSTYYADSVKGRFTISRDNAKNTVYLQMNSLKPEDTAVYYCAADAYSGYSDYYWGQGTQVTVSS | low polyreactivity |
| QVQLVESGGGLVQAGGSLRLSCAASGRTFHSYAMGWYRPAPGKETELVAGISWGGTRTTYADSVTGRFTISRDNAKNTVYLQMNSLKPEDTAVYYCNAVYYALGRSPPDYGYWGQGTQVTVSS | low polyreactivity |
| QVQLVESGGGLVQAGGSLRLSCAASGSTFVRNVMGWYRQAPGKERELVAAITRSGDTTYYADSVKGRFTISRDNAKNTVYLQMNSLKPEDTAVYYCAKRTFVRRGSIYPIDDYWGQGTQVTVSS | low polyreactivity |

For QVQLVESGGGLVQAGGSLRLSCAASGSTFGRYAMGWSRQAPGKEWELVAAISGRGGSTYYADSVKGRFTISRDNAKNTVYLQMNSLKPEDTAVYYCAVRYYSARYWYGYDYWGQGTQVTVSS , what is its reported polyreactivity (PSR sort gate)?
high polyreactivity

For QVQLVESGGGLVQAGGSLRLSCAASGIILPYYVMGLYRQAPGKERELVAAISSGGRTYYADSVKGRFTISRDNAKNTVYLQMNSLKPEDTAVYYCNAYFTGKWYDYWGQGTQVTVSS , what is its reported polyreactivity (PSR sort gate)?
high polyreactivity

For QVQLVESGRGLVQAGGSLRISCAASGSTFYPNAMGWYRQAPGKEREFVAAISTSAGRTYYADSVKGRFTISRDNAKNTVYLQMNSLKPEDTAVYYCNARYWVYYVYEFDSWGQGTQVTVSS , what is its reported polyreactivity (PSR sort gate)?
low polyreactivity

For QVQLVESGGGLVQAGGSLRLSCAASGFIFRYYAMGWYRQAPGKERELVAAISWSGGSTNYADSVKGRFTISRDNAKNTVYLQMNSLKPEDTAVYYCATRYRRWSTVVQDDYWGQGTQVTVSS , what is its reported polyreactivity (PSR sort gate)?
low polyreactivity

For QVQLVESGGGLVQAGGSLRLSCAASGIIISINAMGWYRQAPGKERELVAAISRSGGSTNYADSVKGRFTISRDNAKNTVYLQMNSLKPVDTAVDYCATVHRYSVWSHNYWGQGTQVTVSS , what is its reported polyreactivity (PSR sort gate)?
high polyreactivity

---

Test: yeast display, Sf9 membrane polyspecificity reagent, FACS + sequencing; frameworks hold sequencing errors

| Input Sequence | polyreactivity (PSR sort gate) |
| --- | --- |
| QVQLVESGGGLVQAGGSLRLSCAASGSIFINNTMGWYRQAPGKERELVAAISITGGSTYYADSVKGRFTISRDNAKNTVYLQMNSLKPEDTAVYYCAADPLQLYDYNYWGQGTQVTVSS | low polyreactivity |
| QVQLVESGGGLVQAGGSLRLSCAASGSIFGLYAMGWYRQAPGIERALVAAITTTGGSTYYADSVKGRFTISRDNAKNTVYLQMNSLKPEDTAVYYCNADYVAYGPEYDYWGQGTQVTVSS | low polyreactivity |

---

Assay: yeast display, Sf9 membrane polyspecificity reagent, FACS + sequencing; frameworks hold sequencing errors

| Input Sequence | polyreactivity (PSR sort gate) |
| --- | --- |
| QVQLVESGGGLVQAGGSLRLSCAASGSIFKYYTMGWYRQAPGKERELVAAISWRGGSTYYADSVKGRFTISRDNAKNTVYLQMNSLKPEDTAVYYCAAKSYYNYYYWGQGTQVTVSS | high polyreactivity |
| QVQLVESGGGLAQAGGSLRLRCAASGRTFPSYAMGWYSQAPGKERELVAAISRSGARTYYADSVKGRFTISRDNAKTTVYLQMNSLKPDDTAVYYCAAVGSTRYEYWGQGSQVTVSS | high polyreactivity |
| QVQLVESGGGLVQAGGSLRLSCAASGRTLGTYAMGWYRQAPGKERELVAAISVSSGSTYYADSVKGRFTISRDTAKNTVYLQMNSLKPEDTAVYYCAALPVYHYDSWGQGTQVTVSS | high polyreactivity |
| QVQLVESGGGLVQAGGSLRLSCAASGSTFAYYAMGWYRQAPGKERELVAVISVRVGSTYYADSVKGRFTISRDNAKNTVYLQMNSLNPEDTAVYYCATDFFYHSLSSRQDGDYWGQGTQVTVSS | high polyreactivity |

---

Experiment: yeast display, Sf9 membrane polyspecificity reagent, FACS + sequencing; frameworks hold sequencing errors
Measurement Name: polyreactivity (PSR sort gate)

| Input Sequence | polyreactivity (PSR sort gate) |
| --- | --- |
| QVQLVESGGGLVQAGGSLRLSCAASGRTIYYNAIGRYIQAPVKEREFVATITCSGGSTYADSVKGRFTISRDNAKNTVYLQMNSLKPEDTAVYYCNADFSYTSEDQRALFTNVYYWGQGTQVTVSS | low polyreactivity |
| QIQLVESGGGLVQAGGSLRLSCAASGRTFYSYAMGWYRQAPGKERELVAAINRGASTYYADSVKGRFTISRDNAKNTVYFQMNSLKPEDTAVYYCNAQYYYIPSSTDYDYWGQGTQVTVSS | high polyreactivity |
| QVQLVESGGGLLQAGGSLRLSCAASGGMFKYNAMGWYRQAPRKARELVPAINYSGGRTYYADSVKGRFTISRDNAKNTVYLQMTSLKPEDTAVDYCNALTRGHTGQPYTYDYWGQGTQVTVSS | high polyreactivity |
| QVQHVESGGGLVQAAGSLRLSCAASGTTLSSYAMGWSRQAPGKVRELVAAINSSGGRTYYADSVKGRFTISRDNAKNTVYLQMNSLKPDDTAVYYCAATRGRYREYEDYWGQGTQVTVSS | high polyreactivity |
| QVQRVESGGGLVQAGGSLRISCAASGSITWYYSMGWYRQAPGKERELFAAISDSGGDKYYADSVKGRFTISRDNAKNTVYLQMNSLKPEDTAVYYCNARYSWYGTFGGDYWGQDTQVTVSS | low polyreactivity |

Kindly review the next sequence as well.
For QVQLVESGGGLVQAGGSLRLSCAASGSTFSANTMGWYRQAPGKERELVAAISSSGVGTRYADSVKGRFTISRDNAKNTVYLQMNSLKPEDTSVFYCAADYRPTVITRNDYWGQGTQVTVSS , what is its reported polyreactivity (PSR sort gate)?
low polyreactivity
